System: MDA-MB-231
assay.method.text: cells
measurement.context: Homo sapiens, MDA-MB-231, 24 h
// log10 of IC50 lookup, one value per entry
A difference of one corresponds to tenfold IC50; all values are log10 with IC50 in µM.

These recorded examples may help you get a feel for the data.
>>> df
                                   molecule     value_type  recorded_result
0  COc1cc(OC)c2c(=O)[nH]c(-c3cc(C)c(OCC(=O)Nc4ccc(N5CCCCC5)cc4)c(C)c3)nc2c1  log10 of IC50             1.13
1  COc1cc(OC)c2c(=O)[nH]c(-c3cccc(OCC(=O)O)c3)nc2c1  log10 of IC50             1.41
2  CN1CCN(c2ccc(NC(=O)COc3ccc(-c4nc5cc(F)ccc5c(=O)[nH]4)cc3)cc2Cl)CC1  log10 of IC50             0.84

What the record says about COc1cc(OC)c2c(=O)[nH]c(-c3ccc(OCC(=O)O)cc3)nc2c1 : log10 of IC50 is 1.29

What the record says about COc1cc(OC)c2c(=O)[nH]c(-c3cc(Br)c(OCC(=O)Nc4ccc(N5CCOCC5)c(Cl)c4)c(Br)c3)nc2c1 : log10 of IC50 is 0.60

What the record says about COc1cc(OC)c2c(=O)[nH]c(-c3ccc(OCC(=O)Nc4cccc(N5CCOCC5)c4)cc3)nc2c1 : log10 of IC50 is 1.18

What the record says about COc1cc(OC)c2c(=O)[nH]c(-c3cc(C)c(OCC(=O)Nc4cccc(N5CCOCC5)c4)c(C)c3)nc2c1 : log10 of IC50 is 1.05

What the record says about COc1cc(OC)c2c(=O)[nH]c(-c3ccc(C(=O)O)cc3)nc2c1 : log10 of IC50 is 1.32

What the record says about COc1cc(OC)c2c(=O)[nH]c(-c3cc(C)c(OCC(=O)Nc4ccc(N5CCN(C)CC5)c(Cl)c4)c(C)c3)nc2c1 : log10 of IC50 is 0.54

What the record says about CN1CCN(c2ccc(NC(=O)COc3ccc(-c4nc5cc(Cl)ccc5c(=O)[nH]4)cc3)cc2Cl)CC1 : log10 of IC50 is 1.16

What the record says about COc1cc(OC)c2c(=O)[nH]c(-c3cc(C)c(OCC(=O)Nc4cccc(N5CCN(C)CC5)c4)c(C)c3)nc2c1 : log10 of IC50 is 1.16

What the record says about COc1cc(OC)c2c(=O)[nH]c(-c3ccc(N)cc3)nc2c1 : log10 of IC50 is 1.56
